System: JAK2/Tyk2
Assay: IL-12 T cell phospho-STAT4
Type: cell-based, human
Conditions: Homo sapiens, T-cell; upstream kinases JAK2/Tyk2; read-out: IL-12 T cell phospho-STAT4 EC50
PARAMETER: EC50 (nM)

>>> df
                                   compound  parameter  measurement_unit  observed
0  COc1cc(Nc2ncc(C)c(Nc3ccc4oc(=O)[nH]c4c3)n2)cc(C)c1F [Compound I]       EC50                nM       463

* * *

Tested on: JAK2
Experiment: GM-CSF whole blood granulocytes phospho-STAT5
Assay type: cell-based
Settings: whole blood; JAK2; read-out: GM-CSF whole blood granulocytes phospho-STAT5 EC50
PARAMETER: EC50

                                   compound  parameter  observed
0  COc1cc(Nc2ncc(C)c(Nc3ccc4oc(=O)[nH]c4c3)n2)cc(C)c1F [Compound I]       EC50   32.7 µM

FYI, the data here is from patent US8637038B2.
